B1: TPR 5TU (parent)
chain: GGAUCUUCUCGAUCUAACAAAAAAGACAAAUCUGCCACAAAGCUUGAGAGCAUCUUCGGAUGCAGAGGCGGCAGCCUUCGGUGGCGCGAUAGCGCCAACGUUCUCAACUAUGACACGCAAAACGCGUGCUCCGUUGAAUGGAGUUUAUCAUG

variants of: B1; assay: polymerase ribozyme fitness, log enrichment relative to wild type (log ratio); higher = more active; in vitro selection for triplet polymerase activity
This sample holds only a part of the variants without activity.
# polymerase ribozyme fitness (log ratio) listing for each entry below
Write the value as a bare number.

Recorded results for 4 variants are shown here.
INSERT INTO measurements (variant_identifier, measurement_kind, experimental_value) VALUES
  ('C96G C131A', 'polymerase ribozyme fitness (log ratio)', -2.35),
  ('G58A G133A', 'polymerase ribozyme fitness (log ratio)', -4),
  ('G50U C63U C85A A110G', 'polymerase ribozyme fitness (log ratio)', -4.19),
  ('U53A U135A', 'polymerase ribozyme fitness (log ratio)', -1.55);

I am curious: what polymerase ribozyme fitness (log ratio) value has been reported for G88A G136A ?
-3.83
